system: MDA-MB-231; assay: Cytotoxicity against human MDA-MB-231 cells after 24 hrs by MTT assay; type: functional, cell-based; conditions: MDA-MB-231, 24 h
pIC50: −log10 of the molar value.
Class 1 (yes): pIC50 at least 5. Class 0 (no): pIC50 below 5.

Ask: Hi, just wondering whether O=C1c2cccc3cccc(c23)C(=O)N1CCCNCCCCCCCCCCCCNCCCN1C(=O)c2cccc3cccc(c23)C1=O shows pIC50 of 5 or higher.
Result: 1 (yes)

Ask: Moving on to COc1cccc2c1C(=O)c1c(O)c3c(c(O)c1C2=O)C[C@@](O)(C(=O)CO)C[C@@H]3O[C@H]1C[C@H](N)[C@H](O)[C@H](C)O1
Result: 0 (no)

Ask: Moving on to O=C1c2cccc3cccc(c23)C(=O)N1CCCNCCCCCCCCCCNCCCN1C(=O)c2cccc3cccc(c23)C1=O
Result: 1 (yes)

Ask: Moving on to O=C1c2ccccc2C(=O)N1CCCNCCCCCCCCCCNCCCN1C(=O)c2ccccc2C1=O
Result: 0 (no)

Ask: Moving on to O=C1c2cccc3cccc(c23)C(=O)N1CCCNC1CCCC(CC2CCCC(NCCCN3C(=O)c4cccc5cccc(c45)C3=O)C2)C1 (stereo unspecified)
Result: 1 (yes)

Ask: Moving on to Br.O=C1c2cccc3cccc(c23)C(=O)N1CCCNCCCCCCCCNCCCN1C(=O)c2cccc3cccc(c23)C1=O
Result: 1 (yes)

Ask: Moving on to NCCCN1C(=O)c2cccc3cccc(c23)C1=O
Result: 0 (no)
